# Tested on: BT-549 breast
# Assay overview: NCI tumour cell line growth inhibition, 48 h; in the data active = GI50 below about 0.43 µM; inactive = the rest
Assign a class; possible classes are true (1) (active), false (0) (inactive)

Field: example entries. Status: answers known.
O=c1[nH]c2nc(NC3CCOCC3)ncc2cc1Oc1ccc(F)cc1F : false (0)
S=c1nc(N/N=C/c2ccco2)c2cn[nH]c2[nH]1 : false (0)
O=c1cc(N/N=C/c2ccc(F)cc2)c2cc(Cl)ccc2[nH]1 : false (0)

Query: Outcome logged for O=C(Oc1ccc(CO[N+](=O)[O-])cc1)c1ccccc1 in this assay:
Response: true (1)

Query: Outcome logged for Cc1nc(Nc2ccccn2)sc1C(=O)/C=C/c1ccc(Cl)cc1 in this assay:
Response: true (1)

Query: Outcome logged for CC(C)(C)OC(=O)NCCCn1c2c(c3ccccc3c1=O)C(=O)c1ccccc1-2 in this assay:
Response: false (0)

Query: Outcome logged for COc1ccc2[nH]c(O)c(/C=c3/cc4c(c(-c5ccc(F)c(OC)c5)n3)=Nc3ccccc3-4)c2c1 in this assay:
Response: false (0)
